# System: OVCAR8
# assay_explanation: drug sensitivity score (DSS2) on cancer cell count; higher = more sensitive; extreme values may be limits of the assay
# condition_notes: co-cultured fibroblast: WI38; 72 h
measurement_type: drug sensitivity score (DSS)
Answers are plain numbers, in DSS.

>  <chem_smiles>
CCCCC(=O)OCC(=O)[C@]1(O)Cc2c(O)c3c(c(O)c2[C@@H](O[C@H]2C[C@H](NC(=O)C(F)(F)F)[C@H](O)[C@H](C)O2)C1)C(=O)c1c(OC)cccc1C3=O

>  <value_unit>
DSS

>  <drug sensitivity score>
15.3

$$$$

Fill in drug sensitivity score for each of the 2 molecules listed.
1. Cc1cc(C)c(CNC(=O)c2cc(-c3ccc(CN4CCOCC4)cc3)cc3c2cnn3C2CCCC2)c(=O)[nH]1
2. O=C1CCc2c(Oc3ccc4c(c3)[C@@H]3[C@H](O4)[C@H]3c3nc4cc(C(F)(F)F)ccc4[nH]3)ccnc2N1

1. 0
2. 13.4

What measured drug sensitivity score is associated with O=C(NC[C@H](O)CN1CCc2ccccc2C1)c1cc(NC2COC2)ncn1 on OVCAR8?
0

---

# Test system: OVCAR8
# assay_explanation: drug sensitivity score (DSS2) on cancer cell count; higher = more sensitive; extreme values may be limits of the assay
# condition_notes: co-cultured fibroblast: BJHTERT; 72 h
Assign drug sensitivity score to each entry below.
Answers are plain numbers, in DSS.

Some compounds with recorded drug sensitivity score:
>  <compound>
COc1c(C)cnc(Cn2cnc3c(Cl)nc(N)nc32)c1C [BIIB021]

>  <result_number>
21.5

$$$$
>  <compound>
C[C@@H]1CCN(C(=O)CC#N)C[C@@H]1N(C)c1ncnc2[nH]ccc12 [Tofacitinib]

>  <result_number>
0

$$$$
>  <compound>
CC[C@@H]1C(=O)N(C)c2cnc(Nc3ccc(C(=O)N[C@H]4CC[C@H](N5CCN(CC6CC6)CC5)CC4)cc3OC)nc2N1C(C)C [Volasertib]

>  <result_number>
26.5

$$$$
>  <compound>
CON(C)C(=O)N1N=C(c2cc(F)ccc2F)S[C@@]1(CCCN)c1ccccc1 [Filanesib]

>  <result_number>
21.9

$$$$
>  <compound>
N[C@@H]1CCCN(c2c(/C=C3\SC(=O)NC3=O)cccc2-c2ccccc2)C1 [AZD1208]

>  <result_number>
0

$$$$

Fill in drug sensitivity score for each of the 2 compounds listed.
1. N#CC[C@H](C1CCCC1)n1cc(-c2ncnc3[nH]ccc23)cn1 [Ruxolitinib]
2. CC1(C)CNc2cc(NC(=O)c3cccnc3NCc3ccncc3)ccc21 [Motesanib]

[1.3, 0]

Return reported drug sensitivity score; argument: Cc1ccc(C(=O)Nc2ccc(Oc3cc4cnn(C)c4cc3-c3cn[nH]c3)c(F)c2)c(=O)n1-c1ccc(F)cc1 [Merestinib]
0

---

# Tested on: KURAMOCHI
# assay_explanation: drug sensitivity score (DSS2) on cancer cell count; higher = more sensitive; extreme values may be limits of the assay
# condition_notes: co-cultured fibroblast: WI38; 72 h
Assign drug sensitivity score to each entry below.
Give bare numbers, in DSS.

>  <compound>
Cc1nc(NC(=O)N2CCC[C@H]2C(N)=O)sc1-c1ccnc(C(C)(C)C(F)(F)F)c1

>  <drug sensitivity score / DSS>
0

$$$$
>  <compound>
Cc1ncc(-c2ccnc(Nc3ccc(S(C)(=O)=O)cc3)n2)n1C(C)C

>  <drug sensitivity score / DSS>
22.5

$$$$
>  <compound>
Nc1ccccc1NC(=O)c1ccc(CNc2nccc(-c3cccnc3)n2)cc1

>  <drug sensitivity score / DSS>
13.9

$$$$
>  <compound>
COc1c(C)cnc(Cn2cnc3c(Cl)nc(N)nc32)c1C

>  <drug sensitivity score / DSS>
21.1

$$$$
>  <compound>
CN1CCN(C2CCC(n3cc(-c4ccc(Oc5ccccc5)cc4)c4c(N)ncnc43)CC2)CC1 (stereo unspecified)

>  <drug sensitivity score / DSS>
17.8

$$$$

Fill in drug sensitivity score for each of the 8 compounds listed.
1. COC(=O)C[C@](O)(CCCC(C)(C)O)C(=O)O[C@@H]1C(OC)=C[C@]23CCCN2CCc2cc4c(cc2[C@H]13)OCO4
2. CC(C)[C@H](C(=O)Nc1ccc(C(=O)NO)cc1)c1ccccc1
3. NC(=O)/C(=C/n1cnc(-c2cc(C(F)(F)F)cc(C(F)(F)F)c2)n1)c1cncnc1 [Eltanexor]
4. CNC(=O)c1cccc2cc(Oc3ccnc4cc(OCC5(N)CC5)c(OC)cc34)ccc12
5. CNC(=O)c1ccc(N2C(=S)N(c3ccc(C#N)c(C(F)(F)F)c3)C(=O)C2(C)C)cc1F [Enzalutamide]
6. O=c1ncn2nc(Sc3ccc(F)cc3F)ccc2c1-c1c(Cl)cccc1Cl
7. CNC(=O)CN1CCC(Oc2cc3c(Nc4cccc(Cl)c4F)ncnc3cc2OC)CC1
8. Cc1cc2c(F)c(Oc3ncnn4cc(OC[C@@H](C)O)c(C)c34)ccc2[nH]1

1: 24.5; 2: 15.8; 3: 20.8; 4: 4.3; 5: 0; 6: 0.7; 7: 0; 8: 0

Fill in drug sensitivity score for each of the 7 compounds listed.
1. Cn1ncnc1[C@H]1c2n[nH]c(=O)c3cc(F)cc(c23)N[C@@H]1c1ccc(F)cc1
2. CC(C)c1c(C(=O)Nc2ccccc2)c(-c2ccccc2)c(-c2ccc(F)cc2)n1CC[C@@H](O)C[C@@H](O)CC(=O)O
3. CNC(=O)c1cc(Oc2ccc(NC(=O)Nc3ccc(Cl)c(C(F)(F)F)c3)c(F)c2)ccn1
4. OC[C@H]1O[C@@H](n2cnc3c2N=CNC[C@H]3O)C[C@@H]1O
5. O=C(Nc1ccc2[nH]nc(-c3ccncc3)c2c1)[C@@H]1CCN(CC(=O)N2CCN(c3ccc(-c4ncccn4)cc3)CC2)C1
6. Cc1c(F)cc(C(=O)NC2CC2)cc1-c1ccc(C(=O)NCC(C)(C)C)cn1
7. COc1cc(Nc2ncc(F)c(Nc3ccc4c(n3)NC(=O)C(C)(C)O4)n2)cc(OC)c1OC

1. 15
2. 2.1
3. 3.6
4. 0
5. 12.4
6. 0
7. 3.7

Fill in drug sensitivity score for each of the 7 compounds listed.
1. CC(C)Nc1cc(-c2c[nH]c(C(=O)N[C@H](CO)c3cccc(Cl)c3)c2)c(Cl)cn1
2. COc1ccc2[nH]cc(/C=C3\C(=O)Nc4ccc(NC(=O)CCN5CCCCC5)cc43)c2c1
3. COc1cccc2c1c(O)c(C(=O)N(C)c1ccc(C(F)(F)F)cc1)c(=O)n2C
4. C/C(=C\c1csc(C)n1)[C@@H]1C[C@@H]2O[C@]2(C)CCC[C@H](C)[C@H](O)[C@@H](C)C(=O)C(C)(C)[C@@H](O)CC(=O)N1 [Ixabepilone]
5. Oc1ccc2c(c1)CC[C@H](c1ccccc1)[C@@H]2c1ccc(OCCN2CCCC2)cc1
6. C[C@H]1O[C@@H](O[C@H]2[C@@H](O)C[C@H](O[C@H]3[C@@H](O)C[C@H](O[C@H]4CC[C@@]5(C)[C@H](CC[C@@H]6[C@@H]5C[C@@H](O)[C@]5(C)[C@@H](C7=CC(=O)OC7)CC[C@]65O)C4)O[C@@H]3C)O[C@@H]2C)C[C@H](O)[C@@H]1O
7. CC[C@]12C=CCN3CC[C@@]4(c5cc([C@@]6(C(=O)OC)C[C@@H]7C[C@@H](C(C)(F)F)CN(Cc8c6[nH]c6ccccc86)C7)c(OC)cc5N(C)[C@H]4[C@@](O)(C(=O)OC)[C@@H]1OC(C)=O)[C@@H]32

[9.6, 9.6, 0, 4.6, 0, 10.9, 7]

Fill in drug sensitivity score for each of the 4 compounds listed.
1. CONC(=O)c1ccccc1Nc1cc(Nc2cc(C)nn2C(C)C)ncc1Cl
2. C[C@@H]1COCCN1c1cc(C2([S@](C)(=N)=O)CC2)nc(-c2cc[nH]c3nccc2-3)n1
3. O=C(c1ccc(C(=O)N2CCC(N3CCCC3)CC2)c(Nc2ccccc2)c1)N1CCC(N2CCCC2)CC1
4. O=C1CCC(N2C(=O)c3ccccc3C2=O)C(=O)N1 (stereo unspecified) [Thalidomide]

0
8.6
0
0

---

Assign drug sensitivity score to each entry below.
# Tested on: KURAMOCHI
# assay_explanation: drug sensitivity score (DSS2) on cancer cell count; higher = more sensitive; extreme values may be limits of the assay
# condition_notes: co-cultured fibroblast: BJHTERT; 72 h
Numbers only, in DSS.

Some compounds with recorded drug sensitivity score:
>  <compound>
N#CC[C@H](C1CCCC1)n1cc(-c2ncnc3[nH]ccc23)cn1

>  <drug sensitivity score (DSS)>
0

$$$$
>  <compound>
NC(=O)/C(=C/n1cnc(-c2cc(C(F)(F)F)cc(C(F)(F)F)c2)n1)c1cncnc1 [Eltanexor]

>  <drug sensitivity score (DSS)>
20

$$$$
>  <compound>
Cn1ncc(Cl)c1-c1cc(C(=O)N[C@H](CN)Cc2cccc(F)c2)sc1Cl

>  <drug sensitivity score (DSS)>
1.1

$$$$
>  <compound>
CNC(=O)c1cc(Oc2ccc(NC(=O)Nc3ccc(Cl)c(C(F)(F)F)c3)c(F)c2)ccn1

>  <drug sensitivity score (DSS)>
5.5

$$$$
>  <compound>
Cn1c(=O)n(-c2ccc(C(C)(C)C#N)cc2)c2c3cc(-c4cnc5ccccc5c4)ccc3ncc21

>  <drug sensitivity score (DSS)>
12.4

$$$$
>  <compound>
COc1cc(Nc2ncc(F)c(Nc3ccc4c(n3)NC(=O)C(C)(C)O4)n2)cc(OC)c1OC

>  <drug sensitivity score (DSS)>
0.6

$$$$

Fill in drug sensitivity score for each of the 4 compounds listed.
1. O=C(Nc1ccc2[nH]nc(-c3ccncc3)c2c1)[C@@H]1CCN(CC(=O)N2CCN(c3ccc(-c4ncccn4)cc3)CC2)C1
2. N#Cc1ccc(C(c2ccc(C#N)cc2)n2cncn2)cc1
3. CC(C)c1cc(C(=O)N2Cc3ccc(CN4CCN(C)CC4)cc3C2)c(O)cc1O
4. C[C@@H]1CN(Cc2ccc(F)cc2)[C@@H](C)CN1C(=O)c1cc2c(C(=O)C(=O)N(C)C)cn(C)c2cc1Cl

13.5
0
13
1.2
